Tested on: HL60 cells
Assay: AsedaSciences SYSTEMETRIC Cell Health Screen (flow cytometry toxicity profiling)
Details: HL60, 4 h, 5 nM–100 µM, probability 0–1, n = 2
Endpoint: CMI: Cell membrane integrity score
Numbers only.

Example results:
C#Cc1ccc(F)c(Nc2ncnc3ccc(I)cc23)c1; 0.014
Clc1cccc(Cl)c1N=C1NCCN1 [Clonidine, reference compound]; 0.030
C#Cc1ccc(F)c(Nc2ncnc3cc(OC)c(OC)cc23)c1; 0.78
C#Cc1cccc(Nc2ncnc3ccc(C)cc23)c1; 0.21
COc1cc2c(Nc3ccc(Cl)c(Cl)c3F)ncnc2cc1OC[C@@H]1C[C@@H]2CN(C)C[C@@H]2C1 [Tesevatinib, reference compound]; 1.00

Here are 4 compounds. What values of CMI: Cell membrane integrity score were reported for them?
1. C#Cc1ccc(F)c(Nc2ncnc3cc(I)ccc23)c1
2. C#Cc1cccc(Nc2ncnc3cc(C(F)(F)F)ccc23)c1
3. C#Cc1cccc(Nc2ncnc3cc(OC)c(OC)cc23)c1F
4. CC(C)NCC(O)COc1cccc2ccccc12 (stereo not drawn) [Propranolol, reference compound]

1.00
0.87
0.56
0.20

====

Test system: HL60 cells
Assay: AsedaSciences SYSTEMETRIC Cell Health Screen (flow cytometry toxicity profiling)
Details: HL60, 4 h, 5 nM–100 µM, probability 0–1, n = 2
Could you please report measured CM: Cell morphology score for the items listed next?
Answers are plain numbers.

These solved cases illustrate the format of a correct answer.
C#Cc1cccc(Nc2ncnc3ccc(C)cc23)c1 [Compound 4]; 0.0051
C#Cc1cccc(Nc2ncnc3cc(F)ccc23)c1 [Compound 12]; 0.058
CCc1nn(CCCN2CCN(c3cccc(Cl)c3)CC2)c(=O)n1CCOc1ccccc1 [Nefazodone, reference compound]; 0.97

Batch lookup, CM: Cell morphology score per entry.
1. C#Cc1cccc(Nc2ncnc3cc(OC)c(OC)cc23)c1F [Compound 43]
2. O=C(O)c1cc(/N=N/c2ccc(S(=O)(=O)Nc3ccccn3)cc2)ccc1O [Sulfasalazine, reference compound]
3. CC1(C)NC(=O)N(c2ccc([N+](=O)[O-])c(C(F)(F)F)c2)C1=O [Nilutamide, reference compound]
4. C#Cc1cccc(Nc2ncnc3ccc(OC)cc23)c1 [Compound 2]

1: 0.0093; 2: 0.010; 3: 0.040; 4: 0.24

====

Test system: HL60 cells
Assay: AsedaSciences SYSTEMETRIC Cell Health Screen (flow cytometry toxicity profiling)
Details: HL60, 4 h, 5 nM–100 µM, probability 0–1, n = 2
Can you tell me CM: Cell morphology score for the items I'm about to list?
One number for each entry.

CN1CCN(CCCN2c3ccccc3Sc3ccc(Cl)cc32)CC1 [Prochlorperazine, reference compound]; 1.00
Cc1ccc(N(CC2=NCCN2)c2cccc(O)c2)cc1 [Phentolamine, reference compound]; 0.00
C#Cc1cccc(Nc2ncnc3ccc(F)cc23)c1; 0.0041
C#Cc1cccc(Nc2ncnc3ccc(C(F)(F)F)cc23)c1; 0.058
C#Cc1ccc(F)c(Nc2ncnc3ccc(I)cc23)c1; 0.025
C#Cc1cc(Nc2ncnc3cc(I)ccc23)ccc1F; 0.049

List CM: Cell morphology score for every entry below, keeping the order given.
1. C#Cc1cccc(Nc2ncnc3cc(Br)ccc23)c1
2. CN(C)C/C=C/C(=O)Nc1cc2c(Nc3ccc(F)c(Cl)c3)ncnc2cc1O[C@H]1CCOC1 [Afatinib, reference compound]
3. C#Cc1cc(Nc2ncnc3cc(I)ccc23)ccc1Cl

0.024
1.00
1.00
